# protocol: Antibacterial activity against Streptococcus pyogenes serotype M12 strain MGAS9429 assessed as growth inhibition after 24 hrs by double dilution method
# Format: functional
# setup-conditions: MGAS9429, 24 h
property-label: MIC (µg/mL)
Numbers only, in µg/mL.

Past entries and their recorded results:
CCCCCCCCCCCCCCCCS(=O)(=O)C[C@H]1O[C@H](O[C@@H]2[C@@H](O)[C@H](O[C@H]3O[C@H](CN)[C@@H](O)C[C@H]3N)[C@@H](N)C[C@H]2N)[C@H](O)[C@@H](N)[C@@H]1O    8
CCCCCCCCCCCCCCCCC(=O)NC[C@H]1O[C@H](O[C@@H]2[C@@H](O)[C@H](O[C@H]3O[C@H](CN)[C@@H](O)C[C@H]3N)[C@@H](N)C[C@H]2N)[C@H](O)[C@@H](N)[C@@H]1O    8
CCCCCCCCCCCCCCCCSC[C@H]1O[C@H](O[C@@H]2[C@@H](O)[C@H](O[C@H]3O[C@H](CN)[C@@H](O)C[C@H]3N)[C@@H](N)C[C@H]2N)[C@H](O)[C@@H](N)[C@@H]1O    4
CCCCCCCCCCCCCCS(=O)(=O)C[C@H]1O[C@H](O[C@@H]2[C@@H](O)[C@H](O[C@H]3O[C@H](CN)[C@@H](O)C[C@H]3N)[C@@H](N)C[C@H]2N)[C@H](O)[C@@H](N)[C@@H]1O    4

Pending compound:
q: Dear colleague, please send me the reported MIC for CCCCCCCCCCCCCCSC[C@H]1O[C@H](O[C@@H]2[C@@H](O)[C@H](O[C@H]3O[C@H](CN)[C@@H](O)C[C@H]3N)[C@@H](N)C[C@H]2N)[C@H](O)[C@@H](N)[C@@H]1O when you can.
a: 2

* * *

# System: Enterococcus faecalis
# protocol: Antibacterial activity against Enterococcus faecalis ATCC 29212 assessed as growth inhibition after 24 hrs by double dilution method
# Assay type: functional
# setup-conditions: ATCC 29212, 24 h
property-label: MIC (µg/mL)
Answers are plain numbers, in µg/mL.

Some solved entries appear below for comparison.
CCCCCCCCCCCCSC[C@H]1O[C@H](O[C@@H]2[C@@H](O)[C@H](O[C@H]3O[C@H](CN)[C@@H](O)C[C@H]3N)[C@@H](N)C[C@H]2N)[C@H](O)[C@@H](N)[C@@H]1O    128
CCCCCCCCCCCCCCSC[C@H]1O[C@H](O[C@@H]2[C@@H](O)[C@H](O[C@H]3O[C@H](CN)[C@@H](O)C[C@H]3N)[C@@H](N)C[C@H]2N)[C@H](O)[C@@H](N)[C@@H]1O    64
CCCCCCCCCCCCCCCCc1cn(C[C@H]2O[C@H](O[C@@H]3[C@@H](O)[C@H](O[C@H]4O[C@H](CN)[C@@H](O)C[C@H]4N)[C@@H](N)C[C@H]3N)[C@H](O)[C@@H](N)[C@@H]2O)nn1    128

q: Given CCCCCCCCCCCCCCC(=O)NC[C@H]1O[C@H](O[C@@H]2[C@@H](O)[C@H](O[C@H]3O[C@H](CN)[C@@H](O)C[C@H]3N)[C@@H](N)C[C@H]2N)[C@H](O)[C@@H](N)[C@@H]1O , respond with its MIC.
a: 64

* * *

What MIC was measured for each of the following?
# protocol: Antibacterial activity against Streptococcus pyogenes serotype M12 strain MGAS9429 assessed as growth inhibition after 24 hrs by double dilution method
# Format: functional
# setup-conditions: MGAS9429, 24 h
Include the unit right after the number.

Examples with their reported MIC follow.
CCCCCCCCCCCCCCCCc1cn(C[C@H]2O[C@H](O[C@@H]3[C@@H](O)[C@H](O[C@H]4O[C@H](CN)[C@@H](O)C[C@H]4N)[C@@H](N)C[C@H]3N)[C@H](O)[C@@H](N)[C@@H]2O)nn1    16 µg/mL
CCCCCCCCCCCCSC[C@H]1O[C@H](O[C@@H]2[C@@H](O)[C@H](O[C@H]3O[C@H](CN)[C@@H](O)C[C@H]3N)[C@@H](N)C[C@H]2N)[C@H](O)[C@@H](N)[C@@H]1O    8 µg/mL
CCCCCCCCCCCCCCc1cn(C[C@H]2O[C@H](O[C@@H]3[C@@H](O)[C@H](O[C@H]4O[C@H](CN)[C@@H](O)C[C@H]4N)[C@@H](N)C[C@H]3N)[C@H](O)[C@@H](N)[C@@H]2O)nn1    4 µg/mL
CCCCCCCCCCCCC(=O)NC[C@H]1O[C@H](O[C@@H]2[C@@H](O)[C@H](O[C@H]3O[C@H](CN)[C@@H](O)C[C@H]3N)[C@@H](N)C[C@H]2N)[C@H](O)[C@@H](N)[C@@H]1O    16 µg/mL
CCCCCCCCCCCCCCC(=O)NC[C@H]1O[C@H](O[C@@H]2[C@@H](O)[C@H](O[C@H]3O[C@H](CN)[C@@H](O)C[C@H]3N)[C@@H](N)C[C@H]2N)[C@H](O)[C@@H](N)[C@@H]1O    4 µg/mL

Below are some compounds; for each one, tell me its MIC.
1. CCCCCCCCCCCCS(=O)(=O)C[C@H]1O[C@H](O[C@@H]2[C@@H](O)[C@H](O[C@H]3O[C@H](CN)[C@@H](O)C[C@H]3N)[C@@H](N)C[C@H]2N)[C@H](O)[C@@H](N)[C@@H]1O
2. NC[C@H]1O[C@H](O[C@H]2[C@H](O)[C@@H](O[C@H]3O[C@H](CO)[C@@H](O)[C@H](N)[C@H]3O)[C@H](N)C[C@@H]2N)[C@H](N)C[C@@H]1O [TOBRAMYCIN]
3. CCCCCCCCCCCCc1cn(C[C@H]2O[C@H](O[C@@H]3[C@@H](O)[C@H](O[C@H]4O[C@H](CN)[C@@H](O)C[C@H]4N)[C@@H](N)C[C@H]3N)[C@H](O)[C@@H](N)[C@@H]2O)nn1

a:
["32 µg/mL", "64 µg/mL", "8 µg/mL"]

* * *

So I've got a bunch of compounds here, and I need their MIC values.
# Tested on: Enterococcus faecalis
# protocol: Antibacterial activity against Enterococcus faecalis ATCC 29212 assessed as growth inhibition after 24 hrs by double dilution method
# Type: functional
# setup-conditions: ATCC 29212, 24 h
Give bare numbers, in µg/mL.

CCCCCCCCCCCCCCc1cn(C[C@H]2O[C@H](O[C@@H]3[C@@H](O)[C@H](O[C@H]4O[C@H](CN)[C@@H](O)C[C@H]4N)[C@@H](N)C[C@H]3N)[C@H](O)[C@@H](N)[C@@H]2O)nn1    128
CCCCCCCCCCCCCCCCS(=O)(=O)C[C@H]1O[C@H](O[C@@H]2[C@@H](O)[C@H](O[C@H]3O[C@H](CN)[C@@H](O)C[C@H]3N)[C@@H](N)C[C@H]2N)[C@H](O)[C@@H](N)[C@@H]1O    64

Please look at the following compound next.
q: Supply measured MIC of CCCCCCCCCCCCCCS(=O)(=O)C[C@H]1O[C@H](O[C@@H]2[C@@H](O)[C@H](O[C@H]3O[C@H](CN)[C@@H](O)C[C@H]3N)[C@@H](N)C[C@H]2N)[C@H](O)[C@@H](N)[C@@H]1O in your reply.
a: 64

* * *

# protocol: Induction of hemolysis in rat RBC assessed as hemoglobin release at 64 ug/ml after 1 hr by microplate reader analysis
# Format: cell-based, Erythrocyte
# setup-conditions: red blood cells, read-out: Activity
Can you tell me hemolysis at 1 h, 64 ug/ml for the items I'm about to list?
Numbers only, in %.

CCCCCCCCCCCCCCCCC(=O)NC[C@H]1O[C@H](O[C@@H]2[C@@H](O)[C@H](O[C@H]3O[C@H](CN)[C@@H](O)C[C@H]3N)[C@@H](N)C[C@H]2N)[C@H](O)[C@@H](N)[C@@H]1O    37.9
CCCCCCCCCCCCc1cn(C[C@H]2O[C@H](O[C@@H]3[C@@H](O)[C@H](O[C@H]4O[C@H](CN)[C@@H](O)C[C@H]4N)[C@@H](N)C[C@H]3N)[C@H](O)[C@@H](N)[C@@H]2O)nn1    26.3
CCCCCCCCCCCCCCS(=O)(=O)C[C@H]1O[C@H](O[C@@H]2[C@@H](O)[C@H](O[C@H]3O[C@H](CN)[C@@H](O)C[C@H]3N)[C@@H](N)C[C@H]2N)[C@H](O)[C@@H](N)[C@@H]1O    74.4
CCCCCCCCCCCCCCCCS(=O)(=O)C[C@H]1O[C@H](O[C@@H]2[C@@H](O)[C@H](O[C@H]3O[C@H](CN)[C@@H](O)C[C@H]3N)[C@@H](N)C[C@H]2N)[C@H](O)[C@@H](N)[C@@H]1O    37.9

# next molecule below
q: Tell me its hemolysis at 1 h, 64 ug/ml given CCCCCCCCCCCCCCSC[C@H]1O[C@H](O[C@@H]2[C@@H](O)[C@H](O[C@H]3O[C@H](CN)[C@@H](O)C[C@H]3N)[C@@H](N)C[C@H]2N)[C@H](O)[C@@H](N)[C@@H]1O as the entry.
a: 74.4
